Test summary: in vivo
Setup conditions: Sprague-Dawley, rat, po, 39.2 g/kg/day, AUC 0-∞, MPS group: AIA rats, oral PS 9.8 g crude drug/kg/day 21 days, then oral SM 39.2 g crude drug/kg, plasma, mean ± SEM
Observation type: AUC(0-inf) (ng·h/mL)

C[C@@]12C[C@@]3(O)O[C@@H](O1)[C@]1(COC(=O)c4ccccc4)[C@H]3C[C@@]12O[C@@H]1O[C@H](COC(=O)c2ccccc2)[C@@H](O)[C@H](O)[C@H]1O	37.9
COc1ccc(-c2coc3cc(O)ccc3c2=O)cc1O	13.6
O=C(/C=C/c1ccc(O[C@@H]2O[C@H](CO)[C@@H](O)[C@H](O)[C@H]2O)cc1)c1ccc(O)cc1O	33.1
CN[C@@H](C)[C@H](O)c1ccccc1	1580
C[C@@]12C[C@@]3(O)O[C@@H](O1)[C@]1(COC(=O)c4ccccc4)[C@H]3C[C@@]12O[C@@H]1O[C@H](CO)[C@@H](O)[C@H](O)[C@H]1O	2900
